Test system: Aspergillus flavus
assay-procedure: Antifungal activity against Aspergillus flavus ATCC 44310 at 0.1 mg/uL per disc after 48 hrs by disc diffusion test
Type: functional
quantity-name: diameter of the inhibition zone (DIZ) (mm)
Express it in mm; write the number only.

Input: Write down diameter of the inhibition zone (DIZ) measured for item CCN(CC)CCC(C)COc1c(Br)cc(Br)c2cccnc12 (stereo not drawn)
Output: 7

Input: Kindly indicate its recorded diameter of the inhibition zone (DIZ). Item: CCN(CC)CCC(C)COc1c(I)cc(Cl)c2cccnc12 (stereo not drawn)
Output: 10

Input: Kindly indicate its recorded diameter of the inhibition zone (DIZ). Item: CCN(CC)CCCCOc1ccc2ncccc2c1
Output: 0

Input: Please look at this compound and report its diameter of the inhibition zone (DIZ): Clc1ccc(CNCCCCOc2cccc3ncccc23)cc1
Output: 0

Input: # return recorded diameter of the inhibition zone (DIZ) for input CC(CCNCc1ccc(Cl)cc1)COc1cccc2ncccc12 (stereo not drawn)
Output: 0

Input: Identify measured diameter of the inhibition zone (DIZ) corresponding to CCN(CC)CCC(C)COc1c(I)cc(I)c2cccnc12 (stereo not drawn)
Output: 7

Input: Entry CCN(CC)CCCCOc1c(I)cc(Cl)c2cccnc12 needs its diameter of the inhibition zone (DIZ) filled in; supply it.
Output: 7

Input: Provide only the value of recorded diameter of the inhibition zone (DIZ) for CC(CCNCc1ccc(Cl)cc1)COc1cccc2cccnc12 (stereo not drawn)
Output: 0

Input: Read off the recorded diameter of the inhibition zone (DIZ) for CCN(CC)CCC(C)COc1cccc2cccnc12 (stereo not drawn)
Output: 0

Input: Write down diameter of the inhibition zone (DIZ) measured for item CCN(CC)CCCCOc1cccc2cccnc12
Output: 0

Input: Please report the measured diameter of the inhibition zone (DIZ) for CCN(CC)CCCCOc1cccc2ncccc12
Output: 0

Input: Indicate its recorded diameter of the inhibition zone (DIZ); the compound in question is CCN(CC)CCCCOc1ccc(Cl)c2cccnc12
Output: 0

Input: For the compound CCN(CC)CCC(C)COc1c(Cl)cc(Cl)c2cccnc12 (stereo not drawn) , give its reported diameter of the inhibition zone (DIZ).
Output: 12

----------
Tested on: Aspergillus flavus
assay-procedure: Antifungal activity against Aspergillus flavus ATCC 44310 after 48 to 72 hrs by microdilution method
Type: functional
Could you please report measured MIC for the items listed next?
Return type: number; implicit unit µg/mL.

Input: # return recorded MIC for input CCN(CC)CCC(C)COc1c(Cl)cc(Cl)c2ccc(C)nc12 (stereo not given)
Output: 0.5

Input: Name the recorded MIC of the item CCN(CC)CCC(C)COc1c(I)cc(Cl)c2cccnc12 (stereo not given) in your answer.
Output: 4

Input: Please give the documented MIC of CCN(CC)CCC(C)COc1c(I)cc(I)c2cccnc12 (stereo not given)
Output: 4

Input: Report measured MIC; entry is CCN(CC)CCC(C)COc1c(Br)cc(Br)c2cccnc12 (stereo not given)
Output: 2

Input: Tell us which MIC value is on record for CCN(CC)CCC(C)COc1c(Cl)cc(Cl)c2cccnc12 (stereo not given)
Output: 0.5

----------
Test system: Candida albicans
assay-procedure: Antifungal activity against Candida albicans IHEM 374 at 0.1 mg/uL per disc after 24 hrs by disc diffusion test
Assay type: functional
quantity-name: diameter of the inhibition zone (DIZ) (mm)
Use mm as the unit, but write only the number.

Input: Assign diameter of the inhibition zone (DIZ) to the following record: CC(CCNCc1ccc(Cl)cc1)COc1cccc2ncccc12 (configuration not stated)
Output: 0

Input: Please report the measured diameter of the inhibition zone (DIZ) for CCN(CC)CCCCOc1ccc(Cl)c2cccnc12
Output: 12

Input: Specify diameter of the inhibition zone (DIZ) for Clc1ccc(CNCCCCOc2cccc3ncccc23)cc1 and stop.
Output: 0

Input: Supply recorded diameter of the inhibition zone (DIZ) for Clc1ccc(CNCCCCOc2ccc3ncccc3c2)cc1 here.
Output: 0

Input: Identify diameter of the inhibition zone (DIZ) associated with the compound CCN(CC)CCC(C)COc1c(Cl)cc(Cl)c2ccc(C)nc12 (configuration not stated)
Output: 20

Input: Please report diameter of the inhibition zone (DIZ) for the following compound: CCN(CC)CCC(C)COc1c(I)cc(Cl)c2cccnc12 (configuration not stated)
Output: 7

Input: Identify measured diameter of the inhibition zone (DIZ) corresponding to CCN(CC)CCCCOc1cccc2cccnc12
Output: 0

Input: Provide one value: measured diameter of the inhibition zone (DIZ) of CCN(CC)CCCCOc1c(I)cc(Cl)c2cccnc12
Output: 0

Input: Write down diameter of the inhibition zone (DIZ) measured for item CCN(CC)CCC(C)COc1c(I)cc(I)c2cccnc12 (configuration not stated)
Output: 12

Input: Quick one: give measured diameter of the inhibition zone (DIZ) for CC(CCNCc1ccc(Cl)cc1)COc1c(I)cc(I)c2cccnc12 (configuration not stated)
Output: 7

Input: For CCN(CC)CCC(C)COc1c(Cl)cc(Cl)c2cccnc12 (configuration not stated) , write its diameter of the inhibition zone (DIZ).
Output: 10

Input: Give me measured diameter of the inhibition zone (DIZ), please, for this compound: Clc1ccc(CNCCCCOc2ccc(Cl)c3cccnc23)cc1
Output: 8

Input: // Input: CCN(CC)CCC(C)COc1cccc2cccnc12 (configuration not stated) . Output its diameter of the inhibition zone (DIZ) only.
Output: 0

Input: Read the entry CCN(CC)CCCCOc1cccc2ncccc12 and write its reported diameter of the inhibition zone (DIZ).
Output: 0

Input: Answer with the recorded diameter of the inhibition zone (DIZ) for the compound listed here: CCN(CC)CCC(C)COc1c(Br)cc(Br)c2cccnc12 (configuration not stated)
Output: 20

Input: Look up diameter of the inhibition zone (DIZ) of CCN(CC)CCCCOc1ccc2ncccc2c1 and report it.
Output: 0

Input: Supply reported diameter of the inhibition zone (DIZ) belonging to this compound: CC(CCNCc1ccc(Cl)cc1)COc1cccc2cccnc12 (configuration not stated)
Output: 0
